Target: Protein kinase 7 (PK7), Plasmodium falciparum 3D7 (PF3D7_0213400) (UniProt Q7YTF7)
Sequence (Q7YTF7 1-343): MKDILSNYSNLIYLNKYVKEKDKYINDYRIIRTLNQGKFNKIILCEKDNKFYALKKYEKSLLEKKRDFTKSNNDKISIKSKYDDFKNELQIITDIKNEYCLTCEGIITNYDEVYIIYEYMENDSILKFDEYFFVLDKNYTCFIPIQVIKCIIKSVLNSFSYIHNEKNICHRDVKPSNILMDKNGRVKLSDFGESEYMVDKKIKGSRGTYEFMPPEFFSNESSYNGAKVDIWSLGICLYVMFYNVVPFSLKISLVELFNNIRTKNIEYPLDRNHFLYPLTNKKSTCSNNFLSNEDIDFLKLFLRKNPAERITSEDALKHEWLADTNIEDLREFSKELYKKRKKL
Experiment: inhibition of Plasmodium PK7 catalytic activity – biochemical, TCAMS antimalarial set, Kinase-Glo luminescence (AID 1159587)
Settings: recombinant PfPK7, Kinase-Glo ATP depletion luminescence
Activity calls are given as the source filed them. How the calls were made is not given here.
property_label: outcome

molecule	property_label	reported
COc1ccc2nccc([C@@H](O)CN3CCC(NCc4cc5ccccc5o4)CC3)c2c1	outcome	inactive
CCCCCCCCCCS(=O)(=O)N[C@H](COCc1cccc(Oc2ccccc2)c1)COP(=O)(O)OC	outcome	inactive
Cc1c2ccncc2c(C)c2c1[nH]c1cc(Cc3ccccc3)c(O)cc12	outcome	inactive
Cc1cc(=O)c(-c2ccc(OCc3ccc(Cl)cc3)cc2)c(C)[nH]1	outcome	inactive
Cc1nc(-c2cccc(Nc3nccc(NCC(O)c4ccccc4C)n3)c2)cs1 (stereo not given)	outcome	inactive
CCC(C)c1ccc(NC(=O)C(C)c2ccc([N+](=O)[O-])cc2)cc1 (stereo not given)	outcome	inactive
CN(C)Cc1cccc(-c2ccc(NC(=O)c3ccc4c(=O)n(Cc5cnn(C)c5)cnc4c3)cc2)c1	outcome	inactive
Oc1cccc(Nc2ccnc3cc(-c4nccs4)ccc23)c1	outcome	inactive
c1cc(COc2ccc(C3=NCCN3)cc2)nc(COc2ccc(C3=NCCN3)cc2)c1	outcome	inactive
COc1ccc(-n2cc(C(=O)c3cc(Br)ccc3O)cc(C#N)c2=O)cc1Cl	outcome	inactive
